Source listed as patent US12239652B2.

Would you mind telling me the reported increase of muscle (soleus) weight compared to the control group of each entry?
Tested on: Wistar rats
Experiment: Muscle mass (soleus weight) in TNF-α-induced muscular atrophy animal model
Type: in vivo
Conditions: 50 mg/kg body weight once a day for 8 weeks
Answers are plain numbers, in %.

// solved cases for increase of muscle (soleus) weight compared to the control group follow
Form field: reported increase of muscle (soleus) weight compared to the control group of CCCCCCCCCCCCC/C=C/[C@@H](O)[C@H](CO[C@@H]1O[C@H](CO)[C@@H](O[C@@H]2O[C@H](CO)[C@H](O[C@@H]3O[C@H](CO)[C@H](O)[C@H](O[C@@H]4O[C@H](CO)[C@H](O)[C@H](O)[C@H]4O)[C@H]3NC(C)=O)[C@H](O[C@]3(C(=O)O)C[C@H](O)[C@@H](NC(C)=O)[C@H]([C@H](O)[C@H](O)CO)O3)[C@H]2O)[C@H](O)[C@H]1O)NC(=O)CCCCCCCCCCCCCCCCC [Ganglioside GM1, ganglioside GM1]
22.11

# repeat for CCCCCCCCCCCCC/C=C/[C@@H](O)[C@H](CO[C@@H]1OC(CO)[C@@H](O[C@@H]2OC(CO)[C@H](O[C@H]3OC(CO)[C@H](O)C(OC4OC(CO)C(O)[C@H](O[C@]5(C(=O)O)CC(O)[C@@H](NC(C)=O)C([C@@H](O)[C@H](O)CO)O5)C4CO)C3NC(C)=O)C(O[C@]3(C(=O)O)CC(O)[C@@H](NC(C)=O)C([C@@H](O)[C@H](CO)O[C@]4(C(=O)O)CC(O)[C@@H](NC(C)=O)C([C@@H](O)[C@H](O)CO)O4)O3)C2O)C(O)C1O)NC(=O)CCCCCCCCCCCCCCCCC (stereo partly drawn) [Ganglioside GT1b, ganglioside GT1b]
14.42

Here's the next entry for you.
Form field: reported increase of muscle (soleus) weight compared to the control group of CCCCCCCCCCCCC/C=C/[C@@H](O)[C@H](CO[C@@H]1OC(CO)[C@@H](O[C@@H]2OC(CO)[C@@H](O)C(O[C@]3(C(=O)O)CC(O)[C@@H](NC(C)=O)C([C@@H](O)[C@H](O)CO)O3)C2O)C(O)C1O)NC(=O)CCCCCCCCCCCCCCCCC (stereo partly drawn) [Ganglioside GM3, ganglioside GM3]
23.56

---

Test system: Wistar rats
Experiment: Muscle mass (soleus weight) in TNF-α-induced muscular atrophy animal model
Type: in vivo
Details: 50 mg/kg body weight once a day for 8 weeks
readout_kind: increase of muscle (soleus) weight compared to the control group (%)
Give bare numbers, in %.

Form field: reported increase of muscle (soleus) weight compared to the control group of CCCCCCCCCCCCC/C=C/[C@@H](O)[C@H](CO[C@@H]1OC(CO)[C@@H](O[C@@H]2OC(CO)[C@H](O[C@H]3OC(CO)[C@H](O)C(O[C@@H]4OC(CO)[C@H](O[C@]5(C(=O)O)CC(O)[C@@H](NC(C)=O)C([C@@H](O)[C@H](O)CO)O5)C(O)C4O)C3NC(C)=O)C(O[C@]3(C(=O)O)CC(O)[C@@H](NC(C)=O)C([C@@H](O)[C@H](O)CO)O3)C2O)C(O)C1O)NC(=O)CCCCCCCCCCCCCCCCC (stereo partly shown) [Ganglioside GD1a, ganglioside GD1a]
17.79
